Attribution: ChEMBL document CHEMBL5058564

Tested on: HEK-293T
experiment_notes: Incucyte cell viability with HEK293T; further: unitless GR value; below 1 slowed growth and below 0 cell loss
Assay type: toxicity, cell-based
details: human, 0 h, 10 µM, compound concentration 10 uM, replicate number 1, timepoint 0 hours
measured_metric: Growth Rate
Answers are plain numbers.

{"molecule": "CN(C)CCCc1cc(C(=O)Nc2ccc(-c3ccncc3)cc2)ccc1O.Cl.Cl", "subject_of_test": "HEK-293T", "Growth Rate": 0.52}
{"molecule": "CC(=O)c1cc(-c2ccccc2OCC2CC2)c2ncccn12", "subject_of_test": "HEK-293T", "Growth Rate": 0.61}

// next entry
Notebook: Nc1cnc(N2CCc3cc(S(=O)(=O)Nc4c(F)cc(Cl)cc4F)cc(N4CCCC4=O)c32)nc1 [TP-020n] , Growth Rate read as 0.54

* * *

Give Growth Rate for every item shown.
Test system: HEK-293T
experiment_notes: Incucyte cell viability with HEK293T; further: unitless GR value; below 1 slowed growth and below 0 cell loss
Type: toxicity, cell-based
details: human, 6 h, 10 µM, compound concentration 10 uM, replicate number 2, timepoint 6 hours
Give bare numbers.

For orientation, consider the following solved cases.
{"compound": "CN(C)[C@H]1CN(C2CCc3cccc(F)c32)C[C@@H]1c1ccc(N2CCN(S(C)(=O)=O)CC2)cc1 (stereo partly drawn)", "Growth Rate": 0.35}
{"compound": "CCCCOCCOc1nc(-c2ccc(C(=O)O)c(F)c2)sc1C", "Growth Rate": 0.87}

Please give Growth Rate for each item listed below.
1. CN1[C@@H]2CC[C@H]1C[C@@H](OC(=O)C(CO)c1ccccc1)C2 (stereo partly drawn)
2. CCCCCCCCc1ccc(CCC(N)(CO)CO)cc1
3. O=C(O)CCn1c2c(c3ccccc31)C[C@H](NS(=O)(=O)c1ccc(F)cc1)CC2
4. CC(C)n1cnc2c(Nc3cccc(Cl)c3)nc(N[C@H]3CCCC[C@@H]3N)nc21
5. CC[C@H]1OC(=O)[C@H](C)[C@@H](O[C@H]2C[C@@](C)(OC)[C@@H](O)[C@H](C)O2)[C@H](C)[C@@H](O[C@@H]2O[C@H](C)C[C@H](N(C)C)[C@H]2O)[C@@]2(C)CC(C)=C(O2)[C@H](C)[C@@H](O)[C@]1(C)O
6. CNc1nc(NCc2ncccn2)c2c(-c3ccc4ncccc4c3)c[nH]c2n1
7. COc1ccncc1C(=O)NC(=O)Nc1ccc(-c2ccccc2)c(C(F)(F)F)c1

1. 0.19
2. -0.91
3. 0.71
4. -0.89
5. 0.55
6. 0.12
7. 0.96

Please give Growth Rate for each item listed below.
1. N#Cc1c(N)nc(SCc2csc(-c3ccc(Cl)cc3)n2)c(C#N)c1-c1ccc(OCCO)cc1
2. COc1ccc(NC(=O)c2ccc(-c3ccc(-c4noc(C)n4)cc3C)cc2)cc1OCCN(C)C.Cl
3. N[C@@H]1c2cccnc2[C@H](OC(=O)N2CCC(n3c(=O)[nH]c4ncccc43)CC2)CC[C@H]1c1cccc(F)c1F
4. CN(C)CCCc1cc(C(=O)Nc2ccc(-c3ccncc3)cc2)ccc1O.Cl.Cl

1: 0.69; 2: -0.73; 3: 0.67; 4: 0.48

* * *

System: HEK-293T
experiment_notes: Incucyte cell viability with HEK293T; further: unitless GR value; below 1 slowed growth and below 0 cell loss
Format: toxicity, cell-based
details: human, 12 h, 10 µM, compound concentration 10 uM, replicate number 1, timepoint 12 hours
Give Growth Rate for every item shown.
Answers are plain numbers.

For orientation, consider the following solved cases.
{"compound": "NC[C@H](O)c1ccc(O)c(O)c1.O.O=C(O)C(O)C(O)C(=O)O", "subject_of_test": "HEK-293T", "Growth Rate": 0.75}
{"compound": "COC(=O)[C@H]1[C@H]2C[C@H]3c4[nH]c5ccccc5c4CCN3C[C@H]2CC[C@@H]1O.Cl [RAUWOLSCINE HYDROCHLORIDE]", "subject_of_test": "HEK-293T", "Growth Rate": 0.95}

// next entry
Per the reported HEK-293T data, O=C(O)COc1cccc(-c2ocnc2-c2nc(-c3ccccc3)c(-c3ccccc3)o2)c1 has Growth Rate of 0.79

* * *

Give Growth Rate for every item shown.
System: Fibroblast
experiment_notes: Incucyte cell viability with human fibroblast; further: unitless GR value; below 1 slowed growth and below 0 cell loss
Assay type: toxicity, cell-based
details: 12 h, 10 µM, compound concentration 10 uM, replicate number 1, timepoint 12 hours

For orientation, consider the following solved cases.
{"compound": "N#Cc1c(N)nc(SCc2csc(-c3ccc(Cl)cc3)n2)c(C#N)c1-c1ccc(OCCO)cc1", "Growth Rate": -0.47}
{"compound": "COC(=O)Nc1nc2ccc(C(=O)c3cccs3)cc2[nH]1", "Growth Rate": -0.6}
{"compound": "CS(=O)(=O)N1CCCC(NC(=O)[C@H](CCC2CCCCC2)NC(=O)c2ccc(CNc3ncnc4c3nnn4-c3ccccc3)cc2)C1 (some centres undefined)", "Growth Rate": -0.47}

// next entry
Per the reported Fibroblast data, C[C@@H](O[C@H]1OCCN(Cc2n[nH]c(=O)[nH]2)[C@H]1c1ccc(F)cc1)c1cc(C(F)(F)F)cc(C(F)(F)F)c1 [APREPITANT] has Growth Rate of 0.39

* * *

System: U2OS
experiment_notes: Incucyte cell viability with U2OS; further: unitless GR value; below 1 slowed growth and below 0 cell loss
Assay type: toxicity, cell-based
details: human, 24 h, 10 µM, compound concentration 10 uM, replicate number 1, timepoint 24 hours
Give Growth Rate for every item shown.

For orientation, consider the following solved cases.
{"smiles_data": "NC(=O)c1cccc(-c2cc(Nc3ccc(OC(F)(F)F)cc3)ncn2)c1", "measured": 0.94}
{"smiles_data": "CCCCC[C@H](O)/C=C/[C@H]1CCC(=O)[C@@H]1CCCCCCC(=O)O", "measured": 0.96}
{"smiles_data": "O=C1COc2nccc(-c3ccccc3F)c2CN1Cc1cc(C(F)(F)F)cc(C(F)(F)F)c1", "measured": 0.88}

// next entry
Notebook: S=C(NCCCc1c[nH]cn1)NCCCN(Cc1ccc(Cl)c(Cl)c1)c1ccc(Br)cn1 , Growth Rate read as 0.83

* * *

Tested on: HEK-293T
experiment_notes: Incucyte cell viability with HEK293T; further: unitless GR value; below 1 slowed growth and below 0 cell loss
Type: toxicity, cell-based
details: human, 0 h, 10 µM, compound concentration 10 uM, replicate number 2, timepoint 0 hours
measured_metric: Growth Rate
One number for each entry.

{"compound": "COc1ccc2[nH]c(I)c(CCNC(C)=O)c2c1", "Growth Rate": 0.55}

Please give Growth Rate for each item listed below.
1. Cc1ccc(O)c([C@H](CCN(C(C)C)C(C)C)c2ccccc2)c1.O=C(O)C(O)C(O)C(=O)O [TOLTERODINE TARTRATE]
2. CCNC(=O)[C@H]1O[C@@H](n2cnc3c(N)nc(NCCc4ccc(CCC(=O)O)cc4)nc32)[C@H](O)[C@@H]1O.Cl

[0.52, 0.1]

Please give Growth Rate for each item listed below.
1. CNC(=O)[C@H]1O[C@@H](n2cnc3c(NCc4cccc(I)c4)ncnc32)[C@H](O)[C@@H]1O
2. O=S(=O)(c1ccccc1)c1cnc2c(N3CCNCC3)cccc2c1 [INTEPIRDINE]
3. CN1CCN2c3ccccc3Cc3ccccc3C2C1.Cl (stereo unspecified) [MIANSERIN HYDROCHLORIDE]

1: 0.3; 2: 0.98; 3: 0.8

* * *

Test system: Fibroblast
experiment_notes: Incucyte cell viability with human fibroblast; further: unitless GR value; below 1 slowed growth and below 0 cell loss
Assay type: toxicity, cell-based
details: 6 h, 10 µM, compound concentration 10 uM, replicate number 1, timepoint 6 hours
Where a SMILES comes first, the peptide text is derived from it. [ ]: non-standard residue; d: D form.
measured_metric: Growth Rate

For orientation, consider the following solved cases.
{"compound": "O=C(O)CCC/C=C\\CC1C(O)CC(O)C1/C=C/C(O)COc1cccc(Cl)c1 (configuration not stated)", "Growth Rate": -0.06}
{"compound": "CC(C)n1cnc2c(Nc3cccc(Cl)c3)nc(N[C@H]3CCCC[C@@H]3N)nc21", "Growth Rate": 0.31}
{"compound": "CC(C)C[C@@H]1NC(=O)[C@@H](C(C)C)NC(=O)[C@@H]2CCCN2C(=O)[C@@H](CC(=O)O)NC(=O)[C@@H](Cc2c[nH]c3ccccc23)NC1=O [BQ-123] (cyclo(L[dW][dD]P[dV]))", "Growth Rate": 0.81}
{"compound": "COc1cc2nc(N3CCN(C(=O)c4ccco4)CC3)nc(N)c2cc1OC.Cl [PRAZOSIN HYDROCHLORIDE]", "Growth Rate": -0.46}
{"compound": "O=C(NC[C@@H]1[C@H]2CN(C(=O)OCc3cc(C(F)(F)F)cc(C(F)(F)F)c3)C[C@@H]12)c1ccc2[nH]nnc2c1", "Growth Rate": -0.83}

Please give Growth Rate for each item listed below.
1. CN(C)CCn1cc(S(=O)(=O)c2cccc(F)c2)c2cccnc21.Cl.Cl
2. C[C@]12N[C@H](Cc3ccccc31)c1ccccc12

1: -0.17; 2: 0.45

* * *

Test system: HEK-293T
experiment_notes: Incucyte cell viability with HEK293T; further: unitless GR value; below 1 slowed growth and below 0 cell loss
Type: toxicity, cell-based
details: human, 12 h, 10 µM, compound concentration 10 uM, replicate number 2, timepoint 12 hours
Just a reminder that ties go to Condition not met: only Growth Rate strictly below -0.3 counts as Condition met.

For orientation, consider the following solved cases.
{"smiles_data": "CC[C@H](Nc1ncnc2[nH]cnc12)c1nc2cccc(F)c2c(=O)n1-c1ccccc1", "group": "Condition not met"}
{"smiles_data": "Cc1c(C(=O)Nc2ccc(N3C[C@@H](C)O[C@@H](C)C3)nc2)cccc1-c1ccc(OC(F)(F)F)cc1", "group": "Condition met"}
{"smiles_data": "O=C(N[C@@H]1CC[C@@H](c2cccc(F)c2F)CN(CC(F)(F)F)C1=O)N1CCC(n2c(=O)[nH]c3ncccc32)CC1", "group": "Condition not met"}
{"smiles_data": "CSCC[C@H](NC=O)C(=O)N[C@@H](CC(C)C)C(=O)N[C@@H](Cc1ccccc1)C(=O)O", "group": "Condition not met"}
{"smiles_data": "COc1ncc2cc(C(=O)Nc3cc(C(=O)NCc4cccc(Cl)c4)ccc3Cl)c(=O)[nH]c2n1", "group": "Condition not met"}

is_below(Growth Rate, -0.3) for Cc1cc(O)c(-c2ccc([C@@H](C)CN(C)C)cc2)c2c1[nH]c(=O)c1sccc12 ?
Condition met

is_below(Growth Rate, -0.3) for O=C1[C@H](Cc2ccc(O)cc2)N2C(=O)CCN(C(=O)NCc3ccccc3)[C@H]2CN1Cc1cccc2ccccc12 ?
Condition not met

is_below(Growth Rate, -0.3) for CCC(=O)N1CC[C@H](Nc2ncnc3c2CN(c2cnc(OC)c(C(F)(F)F)c2)CC3)C1 ?
Condition not met
